- method-notes: melting temperature; melt of duplexes
- condition-notes: sodium 0.0675 M; strand 1 µM

substance: CGACGTGCGAAATGTGCTG+CAGCACATAGAGCACGTCG ((((((((...((((((((+))))))))...))))))))
Tm (°C): 56.2

substance: CGACGTGCCGAATGTGCTG+CAGCACATGCGGCACGTCG ((((((((((.((((((((+)))))))).))))))))))
Tm (°C): 61.6

substance: CGACGTGCTCCATGTGCTG+CAGCACATCAGGCACGTCG ((((((((...((((((((+))))))))...))))))))
Tm (°C): 48.6

substance: CGACGTGCACCATGTGCTG+CAGCACATTACGCACGTCG ((((((((...((((((((+))))))))...))))))))
Tm (°C): 42.4

substance: CGACGTGCTAAATGTGCTG+CAGCACATGATGCACGTCG ((((((((...((((((((+))))))))...))))))))
Tm (°C): 53.2

substance: CGACGTGCTTGATGTGCTG+CAGCACATGACGCACGTCG ((((((((.(.((((((((+)))))))).).))))))))
Tm (°C): 46.5

substance: CGACGTGCCTTATGTGCTG+CAGCACATCGAGCACGTCG ((((((((...((((((((+))))))))...))))))))
Tm (°C): 48.3

substance: CGACGTGCCCCATGTGCTG+CAGCACATGATGCACGTCG ((((((((..(((((((((+)))))))))..))))))))
Tm (°C): 51.8

substance: CGACGTGCCCCATGTGCTG+CAGCACATGGGGCACGTCG (((((((((((((((((((+)))))))))))))))))))
Tm (°C): 67.7

substance: CGACGTGCATAATGTGCTG+CAGCACATACAGCACGTCG ((((((((...((((((((+))))))))...))))))))
Tm (°C): 48.2

substance: CGACGTGCAAGATGTGCTG+CAGCACATTCGGCACGTCG ((((((((...((((((((+))))))))...))))))))
Tm (°C): 51.3

substance: CGACGTGCACCATGTGCTG+CAGCACATGCTGCACGTCG (((((((((.(((((((((+))))))))).)))))))))
Tm (°C): 51.6

substance: CGACGTGCATGATGTGCTG+CAGCACATGATGCACGTCG ((((((((((.((((((((+)))))))).))))))))))
Tm (°C): 56.8

substance: CGACGTGCTGCATGTGCTG+CAGCACATGCAGCACGTCG (((((((((((((((((((+)))))))))))))))))))
Tm (°C): 67.5

substance: CGACGTGCGCGATGTGCTG+CAGCACATCGTGCACGTCG ((((((((.((((((((((+)))))))))).))))))))
Tm (°C): 62.4

====

Below, each of the substances is paired with its reported Tm value.
- method-notes: melting temperature; melt of duplexes
- condition-notes: sodium 0.0675 M; strand 1 µM

substance: CGACGTGCCAAATGTGCTG+CAGCACATAAAGCACGTCG ((((((((...((((((((+))))))))...))))))))
Tm [°C]: 49.9

substance: CGACGTGCGCAATGTGCTG+CAGCACATCTCGCACGTCG (((((((((..((((((((+))))))))..)))))))))
Tm [°C]: 52.8

substance: CGACGTGCCTGATGTGCTG+CAGCACATGAGGCACGTCG ((((((((((.((((((((+)))))))).))))))))))
Tm [°C]: 58.5

substance: CGACGTGCTGGATGTGCTG+CAGCACATTAAGCACGTCG (((((((((..((((((((+))))))))..)))))))))
Tm [°C]: 54.8

substance: CGACGTGCGGGATGTGCTG+CAGCACATGTCGCACGTCG (((((((((..((((((((+))))))))..)))))))))
Tm [°C]: 57.8

substance: CGACGTGCATGATGTGCTG+CAGCACATTACGCACGTCG ((((((((.(.((((((((+)))))))).).))))))))
Tm [°C]: 50.6

substance: CGACGTGCTCGATGTGCTG+CAGCACATAACGCACGTCG ((((((((...((((((((+))))))))...))))))))
Tm [°C]: 49

====

- method-notes: melting temperature; melt of duplexes
- condition-notes: sodium 0.0675 M; strand 1 µM

substance: CGACGTGCGGCATGTGCTG+CAGCACATGACGCACGTCG (((((((((.(((((((((+))))))))).)))))))))
Tm / °C: 64
//
substance: CGACGTGCCTGATGTGCTG+CAGCACATGACGCACGTCG ((((((((.(.((((((((+)))))))).).))))))))
Tm / °C: 44.5
//
substance: CGACGTGCACCATGTGCTG+CAGCACATGATGCACGTCG (((((((((.(((((((((+))))))))).)))))))))
Tm / °C: 56.5
//
substance: CGACGTGCTAAATGTGCTG+CAGCACATCCGGCACGTCG ((((((((...((((((((+))))))))...))))))))
Tm / °C: 49.5
//
substance: CGACGTGCAGGATGTGCTG+CAGCACATGATGCACGTCG (((((((((..((((((((+))))))))..)))))))))
Tm / °C: 55
//
substance: CGACGTGCGCGATGTGCTG+CAGCACATAAGGCACGTCG ((((((((...((((((((+))))))))...))))))))
Tm / °C: 50
//
substance: CGACGTGCGCTATGTGCTG+CAGCACATTTGGCACGTCG ((((((((...((((((((+))))))))...))))))))
Tm / °C: 49.2
//
substance: CGACGTGCCAAATGTGCTG+CAGCACATGCTGCACGTCG ((((((((...((((((((+))))))))...))))))))
Tm / °C: 48.2
//
substance: CGACGTGCATGATGTGCTG+CAGCACATAGCGCACGTCG ((((((((...((((((((+))))))))...))))))))
Tm / °C: 47.4
//
substance: CGACGTGCCGAATGTGCTG+CAGCACATTAGGCACGTCG (((((((((.(((((((((+))))))))).)))))))))
Tm / °C: 59.6
//
substance: CGACGTGCAGCATGTGCTG+CAGCACATTCCGCACGTCG ((((((((.(.((((((((+)))))))).).))))))))
Tm / °C: 46.4
//
substance: CGACGTGCAAAATGTGCTG+CAGCACATACTGCACGTCG (((((((((..((((((((+))))))))..)))))))))
Tm / °C: 50.4
//
substance: CGACGTGCCAGATGTGCTG+CAGCACATCGCGCACGTCG ((((((((..(((((((((+)))))))))..))))))))
Tm / °C: 55.4
//
substance: CGACGTGCGTCATGTGCTG+CAGCACATCCAGCACGTCG ((((((((...((((((((+))))))))...))))))))
Tm / °C: 50.7
//
substance: CGACGTGCTACATGTGCTG+CAGCACATACTGCACGTCG ((((((((...((((((((+))))))))...))))))))
Tm / °C: 49.3
//
substance: CGACGTGCCTGATGTGCTG+CAGCACATTACGCACGTCG ((((((((.(.((((((((+)))))))).).))))))))
Tm / °C: 49
//
substance: CGACGTGCCTTATGTGCTG+CAGCACATAGCGCACGTCG ((((((((..(((((((((+)))))))))..))))))))
Tm / °C: 50.4
//
substance: CGACGTGCACCATGTGCTG+CAGCACATGGGGCACGTCG ((((((((.((((((((((+)))))))))).))))))))
Tm / °C: 62.8
//
substance: CGACGTGCACGATGTGCTG+CAGCACATGCCGCACGTCG ((((((((...((((((((+))))))))...))))))))
Tm / °C: 44.4
//
substance: CGACGTGCCAGATGTGCTG+CAGCACATATCGCACGTCG ((((((((.(.((((((((+)))))))).).))))))))
Tm / °C: 49.1
//
substance: CGACGTGCCATATGTGCTG+CAGCACATTCTGCACGTCG ((((((((...((((((((+))))))))...))))))))
Tm / °C: 48.8
//
substance: CGACGTGCTACATGTGCTG+CAGCACATCGTGCACGTCG ((((((((...((((((((+))))))))...))))))))
Tm / °C: 46.6
//
substance: CGACGTGCCGTATGTGCTG+CAGCACATCCAGCACGTCG ((((((((.(.((((((((+)))))))).).))))))))
Tm / °C: 49.8
//
substance: CGACGTGCTGGATGTGCTG+CAGCACATAAAGCACGTCG (((((((((..((((((((+))))))))..)))))))))
Tm / °C: 55.3
//
substance: CGACGTGCGTTATGTGCTG+CAGCACATAGAGCACGTCG ((((((((..(((((((((+)))))))))..))))))))
Tm / °C: 54.6
//
substance: CGACGTGCGACATGTGCTG+CAGCACATCTCGCACGTCG ((((((((((.((((((((+)))))))).))))))))))
Tm / °C: 55.4
//
substance: CGACGTGCATGATGTGCTG+CAGCACATGTTGCACGTCG (((((((((..((((((((+))))))))..)))))))))
Tm / °C: 52.2
//
substance: CGACGTGCAAGATGTGCTG+CAGCACATGTCGCACGTCG ((((((((.(.((((((((+)))))))).).))))))))
Tm / °C: 51.3
//
substance: CGACGTGCAATATGTGCTG+CAGCACATTCTGCACGTCG (((((((((..((((((((+))))))))..)))))))))
Tm / °C: 50.7

The measurements presented in this section are drawn from the array DNA melting data of Ke et al..
